Target: MCP-1 receptor (Homo sapiens)
Construct: endogenous in cells
Sequence (P41597 1-360 isoform P41597-2): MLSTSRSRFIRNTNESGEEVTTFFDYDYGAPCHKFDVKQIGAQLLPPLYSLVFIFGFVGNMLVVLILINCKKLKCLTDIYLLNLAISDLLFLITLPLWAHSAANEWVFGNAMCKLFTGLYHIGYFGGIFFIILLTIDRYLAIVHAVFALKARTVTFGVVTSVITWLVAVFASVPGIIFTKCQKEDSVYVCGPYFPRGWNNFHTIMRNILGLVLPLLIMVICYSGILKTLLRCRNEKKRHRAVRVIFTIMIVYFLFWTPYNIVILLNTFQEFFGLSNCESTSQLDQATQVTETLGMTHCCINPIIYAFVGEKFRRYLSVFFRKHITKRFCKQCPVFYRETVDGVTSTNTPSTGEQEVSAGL
Assay: MCP-1 binding assay (125I-labeled MCP-1, THP-1 cell membranes)
Details: THP-1 membranes, 0.2 nM 125I-MCP-1, 30 minutes at room temperature; read-out: Inhibition of MCP-1 Binding IC50
attribute measured: IC50 (nM)

// solved cases for IC50 follow
>>> meas_value("Nc1c(C2CCCCC2)[nH][nH]c1=O")
1270
>>> meas_value("Nc1c[nH]nc1O")
1650

(A) Nc1c(-c2ccccc2)n[nH]c1O
(B) Oc1[nH]nc2c1NCCC2
## Input Please tell me which of the two, A or B , has the higher reported IC50 value. Label of pick, please.
## Output B
(B: 5640 nM, A: 730 nM)
